Biological target: T1, human TL1A extracellular domain with N-terminal HIS and FLAG tag (human, UniProt O95150 72-251)
T1 construct: the whole entry is named; also called TNFSF15
T1 sequence: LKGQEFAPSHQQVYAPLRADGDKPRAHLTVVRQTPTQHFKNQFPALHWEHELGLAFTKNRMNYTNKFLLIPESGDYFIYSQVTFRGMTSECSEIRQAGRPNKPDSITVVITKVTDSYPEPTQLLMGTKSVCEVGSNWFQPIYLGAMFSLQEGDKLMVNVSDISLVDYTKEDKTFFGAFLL
Experiment: SPR Run 8, antibody on Protein A, TL1A 5 ug/mL, timepoint 44
Readout Kind: TL1A Binding Level (Early)

- 320-587 (antibody, name in Kabat numbering, V domains shown, full-length human IgG1, lambda) VH: QVQLVQSGAEVKKPGASVKVSCKASGYTFTSYDINWVRQAPGQGLEWMGWLNPNSGYTGYAQKFQGRVTMTADRSTSTAYMELSSLRSEDTAVYYCAREVPETAAFEYWGQGTLVTVSS VL: QSVLTQPPSVSGAPGQRVTISCTSSSSDIGAGLGVHWYQQLPGTAPKLLIEGYYNRPSGVPDRFSGSKSGTSASLTITGLLPEDEGDYYCQSWDGTLSALFGGGTKLTVLG: 123 RU
- 320-588 (antibody, human IgG1, name in Kabat numbering, V domains shown, full-length human IgG1, lambda) VH: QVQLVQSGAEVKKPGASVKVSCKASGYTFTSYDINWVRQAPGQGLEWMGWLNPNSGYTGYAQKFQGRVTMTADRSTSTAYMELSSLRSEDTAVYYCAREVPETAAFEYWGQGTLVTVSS VL: QSVLTQPPSVSGAPGQRVTISCTSSSSDIGAALGVHWYQQLPGTAPKLLIEGYYNRPSGVPDRFSGSKSGTSASLTITGLLPEDEGDYYCQSYDGTLSALFGGGTKLTVLG: 128 RU
